This collection of values is drawn from the supplement of paper PMC6522484.

Tested on: SW480
Assay: TCF/Wnt firefly luciferase reporter signal relative to plate median (fraction of plate median); higher = higher Wnt reporter signal
Conditions: 5 µM; treatment time 24 h; reporter: 7TFP
metric-name: TCF/Wnt firefly luciferase reporter signal

Look over these answered cases.
# given-smiles, target, measured
rows = [
    ("C/C=C(/C)C(=O)O[C@H]1CC[C@@]2(C)[C@@H]3CC[C@H]4[C@]5(O)C[C@H](O)[C@@]6(O)[C@@H](CN7C[C@@H](C)CC[C@H]7[C@@]6(C)O)[C@]5(O)C[C@@]42O[C@]13O", "SW480", 0.923),
    ("C[C@]12CCC(=O)C[C@@H]1CC[C@@H]1[C@@H]2CC[C@]2(C)C(=O)CC[C@@H]12", "SW480", 0.953),
]

Now turn to the next compound.
Problem: Endpoint output: TCF/Wnt firefly luciferase reporter signal of CN1C[C@H](C(=O)N[C@]2(C)O[C@@]3(O)[C@@H]4CCCN4C(=O)[C@H](Cc4ccccc4)N3C2=O)C[C@@H]2c3cccc4[nH]cc(c34)C[C@H]21 . Value?
Solution: 0.884

====

System: DLD1
Experiment: cell viability (CellTiter-Glo) relative to plate median (fraction of plate median); higher = more viable cells
Details: 10 µM; treatment time 24 h; reporter: TCF4/Wnt
Task for the reader: assign each of the following molecules its reported cell viability.
Answers are plain numbers.

Dear colleague, could you please provide cell viability for the molecules listed below?
1. Cc1ccccc1-n1c(Cn2ncc3c(N)ncnc32)nc2cccc(C)c2c1=O
2. Cn1cc(C2=C(c3cn(C4CCN(Cc5ccccn5)CC4)c4ccccc34)C(=O)NC2=O)c2ccccc21
3. CCN1CCN(C(=O)Cc2ccc(Nc3ncc(F)c(Nc4ccc(C(=O)Nc5ccccc5Cl)cc4)n3)cc2)CC1 [Aurora A Inhibitor I]
4. O=c1[nH]c2ccc(Cl)cc2c(N[C@@H]2CN3CCC2CC3)c1-c1nc2ccccc2[nH]1
5. CC(C)(C)c1cc(C=C(C#N)C#N)cc(Br)c1O

Solution:
1: 1.03; 2: 0.931; 3: 1.09; 4: 1.06; 5: 0.804

====

Tested on: HCT116
Test: cell viability (CellTiter-Glo) relative to plate median (fraction of plate median); higher = more viable cells
Details: 5 µM; treatment time 24 h; reporter: TCF4/Wnt
metric-name: cell viability
Numbers only.

Consider the following illustrative entries.
# given-smiles, target, cell viability
data = [
    ("c1cc2c(cc1[C@H]1OC[C@H]3[C@@H]1CO[C@H]3c1ccc3c(c1)OCO3)OCO2", "HCT116", 1.03),
    ("CN[C@@H]1[C@@H](O)[C@@H](O[C@@H]2[C@@H](O)[C@H](O[C@H]3O[C@H](CN)CC[C@H]3N)[C@@H](N)C[C@H]2N)OC[C@]1(C)O.CN[C@@H]1[C@@H](O)[C@@H](O[C@@H]2[C@@H](O)[C@H](O[C@H]3O[C@H]([C@@H](C)N)CC[C@H]3N)[C@@H](N)C[C@H]2N)OC[C@]1(C)O.CN[C@@H]1[C@@H](O)[C@@H](O[C@@H]2[C@@H](O)[C@H](O[C@H]3O[C@H]([C@@H](C)NC)CC[C@H]3N)[C@@H](N)C[C@H]2N)OC[C@]1(C)O", "HCT116", 0.997),
    ("C[C@]12CC[C@H](O)CC1=CC[C@@H]1[C@@H]2CC[C@]2(C)C(=O)CC[C@@H]12", "HCT116", 1.15),
    ("C[C@@H]1C[C@H](O)[C@@]2(O)[C@]13CC(=O)OC[C@@]2(C)[C@@](C)(O)C(=O)C3", "HCT116", 1.03),
]

Here are 2 compounds. What values of cell viability were reported for them?
1. Cc1cccc(C)c1NC1=NCCCS1
2. C[C@H]1CC[C@]2(NC1)O[C@H]1C[C@H]3[C@@H]4CC[C@H]5C[C@@H](O)CC[C@]5(C)[C@H]4CC[C@]3(C)[C@H]1[C@@H]2C

Solution:
1. 1.01
2. 1.01
